Target Under Test: T1, non-activatable Factor X (FXn) (Homo sapiens (Human), UniProt P00742 41-488, single biotin on the C-terminal BioTag)
T1 construct: also called BIIB-FX-015
Protocol Summary: BLI; class meaning: paragraph 285

>  <Binder>
BIIB-12-1313 (antibody, V domains shown, IgG) VH: QVQLVESGGGVVQPGRSLRLSCAASGFTFSSYGMHWVRQAPGKGLEWVAVISYDGSNKYYADSVKGRFTISRDNSKNTLYLQMNSLRAEDTAVYYCAKGTGWWRYWGQGTLVTVSS VL: EIVMTQSPATLSVSPGERATLSCRASQSVSSNLAWYQQKPGQAPRLLIYGASTRATGIPARFSGSGSGTEFTLTISSLQSEDFAVYYCQQHNHLPITFGGGTKVEIK

>  <binding result>
binds

$$$$
